measurement.notes: NCI Yeast Anticancer Drug Screen. Data for the bub3 strain (AID 167)
measurement.conditions: S. cerevisiae bub3 mutant strain, at 50.0 µM (retest, dose inferred, filed as 5.0), hits give high values
Compounds without any hit were thinned out: in the full panel of roughly 79,000, 15% have a hit.

| molecule | scale.unit | growth inhibition |
| --- | --- | --- |
| O=C1CC(=S)NC(=S)N1 | % | -8 |
| CCCCCCCCCCCCCCCCCO | % | 8 |
| CC(C)c1ccc2nc3ccc(C(=O)NCCN4CCN(c5ccccc5)CC4)cn3c(=O)c2c1 | % | 98 |
| CC(=O)OCc1ccc(O)c2ncccc12 | % | 74 |
| COc1ccc(C(=O)Cc2nc3nnc(NC(=O)Nc4ccc(Cl)cc4)n3nc2CC(=O)c2ccc(OC)cc2)cc1 | % | 98 |
| CCCCCCCC1SCC(=O)N1c1nncs1 (stereo not drawn) | % | 95 |
| O=[N+]([O-])c1ccc(N=Nc2ccc(O)cc2O)cc1 | % | 97 |
| CCC[CH2][Sn]([CH2]CCC)([O]C(=O)C(OC(C)=O)c1ccccc1)[O]C(=O)C(OC(C)=O)c1ccccc1 (stereo not drawn) | % | 97 |
| OCc1cccc2c1Oc1ccccc1S2 | % | 73 |
| Cc1c(CC=C(c2ccccc2)c2ccccc2)cccc1C[N+](C)(C)C | % | 72 |
| Cc1c2ccccc2c(C)c2c1ccc1ccccc12 | % | 93 |
| Nc1ccccc1SCc1csc(-c2ccc(Cl)cc2)n1 | % | 98 |
| O=C(CC1(O)C(=O)Nc2c(Cl)ccc(Cl)c21)c1ccc(Cl)cc1Cl (stereo not drawn) | % | -2 |
| CC(C)(C)NC1=NC(C(F)(F)F)(C(F)(F)F)NC(=O)N1 | % | 95 |
| O=C(CNC(=O)OCc1ccccc1)Oc1ccc([N+](=O)[O-])cc1 | % | 0 |
| Cc1ccc2nc(-[n+]3cc4ccccc4cc3C)ccc2c1 | % | 100 |
| O=C(CCSCCC(=O)NNc1ccccc1)NNc1ccccc1 | % | 44 |
| CCN(CC)c1ccc(SC#N)cc1 | % | 96 |

* * *

measurement.notes: NCI Yeast Anticancer Drug Screen. Data for the cln2 rad14 strain (AID 165);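 note: 0% = growth equal to vehicle treated cultures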
measurement.conditions: S. cerevisiae cln2 rad14 strain, at 5.0 µM (retest, dose inferred, filed as 0.5), hits give high values
About 79,000 compounds went through this panel and 15% of them were active in at least one assay; those are over-represented in the sample as a whole.
This section presents compounds with their documented growth inhibition values.

| compound | growth inhibition (%) |
| --- | --- |
| NC1=CC(=O)c2ccccc2C1=O | 9 |
| CC(C)(C)c1cc(C(O)(C(F)(F)F)C(F)(F)F)c(S)c(C(O)(C(F)(F)F)C(F)(F)F)c1 | 16 |
| CCOP(=O)(C=C=C1CCC2[C@@H]3CCc4cc(OC)ccc4C3CC[C@]12C)OCC (stereo not given in full) | 1 |
| CCOc1c(N=Nc2ccccc2OC)c(C)nn1C(N)=S | -2 |
| Oc1c(Cl)c2ccccc2c2ccccc12 | -1 |
| COc1cc(C(c2cc3c(cc2O)OCO3)N2CCCCC2)cc(OC)c1OC (stereo not given) | -6 |
| COc1ccc(OC)c2c(C(=O)O)c(C(C)c3ccccc3)ccc12 (stereo not given) | 1 |
| O=[N+]([O-])c1cccc2nc3ccccc3c(NCCO)c12 | 89 |
| O=C(c1ccc([N+](=O)[O-])cc1)N1CCCSC1=S | 21 |
| OC(Cc1ccccc1)(c1ccccc1)C(O)(Cc1ccccc1)c1ccccc1 (stereo not given) | 13 |
| COC(=O)c1nc(=S)[nH]c(C(=O)OC)c1C(=O)c1ccc2ccccc2c1 | 8 |
| O=C1CCCC/C1=C(\Br)I | 19 |
| c1ccc(CSc2nnc3c4ccccc4c4ccccc4c3n2)cc1 | -21 |
| O=C(O)c1ccc2c3c(ncnc13)-c1ccccc1C2=O | 36 |
| Cc1c(C)c2cc3c(=O)ccoc3c(C)c2oc1=O | 8 |
